test-details: Pharmacokinetic profile in rat plasma following oral administration
Assay type: in vivo
conditions: female, rat, po, 0.2 mg/kg, individual rats
The reader will find reported half-life values listed item by item below.
Your answer should be a plain number; it is taken to be in h.

input: Quick one: half-life for [2H]c1c([2H])c([2H])c(N(CC)C(=O)c2c(O)c3c(Cl)cccc3n(C)c2=O)c([2H])c1[2H] [Compound 1] ?
output: 13.4

input: Quick one: half-life for [2H]c1c([2H])c([2H])c(N(C(=O)c2c(O)c3c(Cl)cccc3n(C)c2=O)C([2H])([2H])C([2H])([2H])[2H])c([2H])c1[2H] [Compound 3] ?
output: 11.5

input: Quick one: half-life for CCN(C(=O)c1c(O)c2c(Cl)cccc2n(C)c1=O)c1ccccc1 [Laquinimod, reference compound] ?
output: 12

More entries:
input: Quick one: half-life for [2H]C([2H])([2H])C([2H])([2H])N(C(=O)c1c(O)c2c(Cl)cccc2n(C)c1=O)c1ccccc1 [Compound 2] ?
output: 13.6

----------
The reader will find reported Incidence values listed item by item below.
Tested on: MOG induced EAE
test-details: MOG induced EAE in C57BL/6 mice
Assay type: in vivo
conditions: 10 mg/kg orally, daily; sick mice/group

input: Quick one: Incidence for [2H]c1c([2H])c([2H])c(N(C(=O)c2c(O)c3c(Cl)cccc3n(C)c2=O)C([2H])([2H])C([2H])([2H])[2H])c([2H])c1[2H] [Compound 3] ?
output: 10/15

input: Quick one: Incidence for [2H]c1c([2H])c([2H])c(N(CC)C(=O)c2c(O)c3c(Cl)cccc3n(C)c2=O)c([2H])c1[2H] [Compound 1] ?
output: 8/15

input: Quick one: Incidence for [2H]C([2H])([2H])C([2H])([2H])N(C(=O)c1c(O)c2c(Cl)cccc2n(C)c1=O)c1ccccc1 [Compound 2] ?
output: 13/15

From here, focus on the item given below.
input: Quick one: Incidence for CCN(C(=O)c1c(O)c2c(Cl)cccc2n(C)c1=O)c1ccccc1 [Laquinimod, reference compound] ?
output: 9/15

----------
test-details: Pharmacokinetic profile in rat plasma following oral administration
Format: in vivo
conditions: female, rat, po, 0.2 mg/kg, Average of rats, read-out: Cmax
value-type: Cmax (ng/mL)
Your answer should be a plain number; it is taken to be in ng/mL.

input: Quick one: Cmax for `[2H]c1c([2H])c([2H])c(N(CC)C(=O)c2c(O)c3c(Cl)cccc3n(C)c2=O)c([2H])c1[2H]` ?
output: 774

input: Quick one: Cmax for `[2H]C([2H])([2H])C([2H])([2H])N(C(=O)c1c(O)c2c(Cl)cccc2n(C)c1=O)c1ccccc1` ?
output: 725

input: Quick one: Cmax for `[2H]c1c([2H])c([2H])c(N(C(=O)c2c(O)c3c(Cl)cccc3n(C)c2=O)C([2H])([2H])C([2H])([2H])[2H])c([2H])c1[2H]` ?
output: 835

input: Quick one: Cmax for CCN(C(=O)c1c(O)c2c(Cl)cccc2n(C)c1=O)c1ccccc1 [Laquinimod, reference compound] ?
output: 794

----------
test-details: Pharmacokinetic profile in rat plasma following oral administration
Format: in vivo
conditions: female, rat, po, 0.2 mg/kg, Average of rats
value-type: AUC(0-t) (ng·h/mL)
Your answer should be a plain number; it is taken to be in ng·h/mL.

Some compounds with recorded AUC(0-t):
input: Quick one: AUC(0-t) for `[2H]c1c([2H])c([2H])c(N(C(=O)c2c(O)c3c(Cl)cccc3n(C)c2=O)C([2H])([2H])C([2H])([2H])[2H])c([2H])c1[2H]` ?
output: 10500

input: Quick one: AUC(0-t) for `[2H]C([2H])([2H])C([2H])([2H])N(C(=O)c1c(O)c2c(Cl)cccc2n(C)c1=O)c1ccccc1` ?
output: 10300

input: Quick one: AUC(0-t) for `[2H]c1c([2H])c([2H])c(N(CC)C(=O)c2c(O)c3c(Cl)cccc3n(C)c2=O)c([2H])c1[2H]` ?
output: 10400

From here, focus on the item given below.
input: Quick one: AUC(0-t) for CCN(C(=O)c1c(O)c2c(Cl)cccc2n(C)c1=O)c1ccccc1 [Laquinimod, reference compound] ?
output: 11700
